- TEST SYSTEM: Epidermal growth factor receptor (Homo sapiens, UniProt P00533, L858R/T790M)
- Sequence (P00533 25-1210 T790M/L858R limits assumed): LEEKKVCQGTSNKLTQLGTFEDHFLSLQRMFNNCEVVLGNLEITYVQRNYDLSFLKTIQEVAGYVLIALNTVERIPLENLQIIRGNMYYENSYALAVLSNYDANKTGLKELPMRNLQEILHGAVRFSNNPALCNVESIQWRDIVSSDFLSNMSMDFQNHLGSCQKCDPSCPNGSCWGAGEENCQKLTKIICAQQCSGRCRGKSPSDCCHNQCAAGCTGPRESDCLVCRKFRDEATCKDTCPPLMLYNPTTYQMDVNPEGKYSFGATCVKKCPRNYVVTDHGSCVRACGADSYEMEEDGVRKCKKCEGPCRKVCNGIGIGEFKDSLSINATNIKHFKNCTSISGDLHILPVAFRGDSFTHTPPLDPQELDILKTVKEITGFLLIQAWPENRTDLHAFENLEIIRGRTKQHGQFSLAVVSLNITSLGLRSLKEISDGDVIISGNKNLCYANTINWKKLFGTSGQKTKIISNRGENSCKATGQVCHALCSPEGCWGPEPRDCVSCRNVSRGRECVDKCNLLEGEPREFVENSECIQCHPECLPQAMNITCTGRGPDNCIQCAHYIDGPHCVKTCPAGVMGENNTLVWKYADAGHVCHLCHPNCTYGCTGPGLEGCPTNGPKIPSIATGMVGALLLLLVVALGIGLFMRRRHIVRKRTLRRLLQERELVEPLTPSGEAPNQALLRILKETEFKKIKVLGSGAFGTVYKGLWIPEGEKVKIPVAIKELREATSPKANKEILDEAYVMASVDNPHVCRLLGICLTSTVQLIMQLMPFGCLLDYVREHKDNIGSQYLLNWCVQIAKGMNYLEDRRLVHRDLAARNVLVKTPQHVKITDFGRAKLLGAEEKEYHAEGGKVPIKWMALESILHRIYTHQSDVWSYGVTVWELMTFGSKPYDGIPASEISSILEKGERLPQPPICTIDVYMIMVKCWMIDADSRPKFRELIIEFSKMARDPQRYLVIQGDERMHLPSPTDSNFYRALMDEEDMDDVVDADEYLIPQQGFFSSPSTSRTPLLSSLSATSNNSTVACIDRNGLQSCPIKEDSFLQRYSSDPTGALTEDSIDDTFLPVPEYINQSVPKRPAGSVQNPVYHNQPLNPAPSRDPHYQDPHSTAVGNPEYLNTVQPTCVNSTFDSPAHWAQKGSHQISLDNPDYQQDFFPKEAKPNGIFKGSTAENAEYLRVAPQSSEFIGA
- ASSAY METHOD TEXT: Inhibition of EGFR kinase L858R/T790M double mutant (unknown origin) after 1.5 hrs by FRET-based Z'-Lyte assay
- Assay type: protein assay
IC50 values by entry
Please respond with the number in nM and leave the unit unwritten.

Solved entries (count: 2):
C=CC(=O)Nc1cccc(N2C(=O)CN(c3ccccc3)C(=O)c3cnc(Nc4ccc(N5CCN(C)CC5)cc4OC)nc32)c1; 194
C=CC(=O)Nc1cccc(N2C(=O)C(Cc3ccc(OC)cc3)N(C)C(=O)c3cnc(Nc4ccc(N5CCN(C)CC5)cc4OC)nc32)c1 (stereo not given); 53.9

Moving on to another molecule below.
Query string: Print Epidermal growth factor receptor (Homo sapiens, UniProt P00533, L858R/T790M) IC50 for C=CC(=O)Nc1cccc(N2C(=O)CN(Cc3ccccc3)C(=O)c3cnc(Nc4ccc(N5CCN(C)CC5)cc4OC)nc32)c1 .
Result string: 32.8

====

- Test system: NCI-H1975
- ASSAY METHOD TEXT: cells
- Format: functional, cell-based
- TEST CONTEXT: Homo sapiens, NCI-H1975, 72 h
READOUT TYPE: log10 of IC50 (log10 of the value in nM)
The base-10 logarithm of IC50, taken with IC50 in nM, is what appears here.

Solved entries (count: 5):
C=CC(=O)Nc1cccc(N2C(=O)CN(Cc3ccccc3)C(=O)c3cnc(Nc4ccc(N5CCN(C)CC5)cc4OC)nc32)c1; 3.41
C=CC(=O)Nc1cccc(N2C(=O)C(Cc3ccc(OC)cc3)N(C)C(=O)c3cnc(Nc4ccc(N5CCN(C)CC5)cc4OC)nc32)c1 (stereo not given); 2.91
C=CC(=O)Nc1cccc(N2C(=O)C(C(C)C)N(C)C(=O)c3cnc(Nc4ccc(N5CCN(C)CC5)cc4OC)nc32)c1 (stereo not given); 2.81
C=CC(=O)Nc1cccc(N2C(=O)CN(C)C(=O)c3cnc(Nc4ccc(N5CCN(C)CC5)cc4OC)nc32)c1; 4.07
C=CC(=O)Nc1cccc(N2C(=O)C3CCCN3C(=O)c3cnc(Nc4ccc(N5CCN(C)CC5)cc4OC)nc32)c1 (stereo not given); 4.50

Moving on to another molecule below.
Query string: For the molecule C=CC(=O)Nc1cccc(Oc2nc(Nc3ccc(N4CCN(C)CC4)cc3OC)ncc2Cl)c1 , give its reported log10 of IC50.
Result string: 1.94

====

- TEST SYSTEM: Epidermal growth factor receptor (Homo sapiens, UniProt P00533, L858R/T790M)
- ASSAY METHOD TEXT: Inhibition of EGFR kinase L858R/T790M double mutant (unknown origin) after 1.5 hrs by FRET-based Z'-Lyte assay
IC50 strictly under 40 nM means yes; at 40 nM or over means no.

C=CC(=O)Nc1cccc(N2C(=O)CN(C)C(=O)c3cnc(Nc4ccc(N5CCN(C)CC5)cc4OC)nc32)c1; no

Query string: Regarding C=CC(=O)Nc1cccc(N2C(=O)C(Cc3ccc(F)cc3)N(C)C(=O)c3cnc(Nc4ccc(N5CCN(C)CC5)cc4OC)nc32)c1 (configuration not stated) , kindly confirm whether its IC50 is beneath 40 nM.
Result string: yes

Query string: Regarding C=CC(=O)Nc1cccc(N2C(=O)C(C(C)C)N(C)C(=O)c3cnc(Nc4ccc(N5CCN(C)CC5)cc4OC)nc32)c1 (configuration not stated) , kindly confirm whether its IC50 is beneath 40 nM.
Result string: yes

Query string: Regarding C=CC(=O)Nc1cccc(N2C(=O)C(Cc3ccccc3)N(C)C(=O)c3cnc(Nc4ccc(N5CCN(C)CC5)cc4OC)nc32)c1 (configuration not stated) , kindly confirm whether its IC50 is beneath 40 nM.
Result string: yes

Query string: Regarding C=CC(=O)Nc1cccc(N2C(=O)C(C)N(C)C(=O)c3cnc(Nc4ccc(N5CCN(C)CC5)cc4OC)nc32)c1 (configuration not stated) , kindly confirm whether its IC50 is beneath 40 nM.
Result string: no

Query string: Regarding C=CC(=O)Nc1cccc(N2C(=O)C(C(C)CC)N(C)C(=O)c3cnc(Nc4ccc(N5CCN(C)CC5)cc4OC)nc32)c1 (configuration not stated) , kindly confirm whether its IC50 is beneath 40 nM.
Result string: no
